SYSTEM UNDER TEST: Ct Smc4hd–Brn1C (Thermochaetoides thermophila, UniProt G0S2G2, DEL467-1366/Q421L)
Sequence (G0S2G2 264-466 Q421L): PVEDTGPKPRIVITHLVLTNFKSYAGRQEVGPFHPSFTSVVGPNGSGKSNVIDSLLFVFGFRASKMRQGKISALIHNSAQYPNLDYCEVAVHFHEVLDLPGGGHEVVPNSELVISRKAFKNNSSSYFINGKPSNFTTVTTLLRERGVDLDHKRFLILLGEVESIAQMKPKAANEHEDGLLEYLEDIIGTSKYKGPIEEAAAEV
Sequence (G0S2G2 1367-1542, stated change not applied): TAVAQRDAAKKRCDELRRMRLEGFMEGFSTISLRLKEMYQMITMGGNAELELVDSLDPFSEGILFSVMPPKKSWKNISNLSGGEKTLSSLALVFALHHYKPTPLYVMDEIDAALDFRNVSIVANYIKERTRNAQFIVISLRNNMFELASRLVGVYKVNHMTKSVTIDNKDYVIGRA
Sequence (G0SBJ6 765-898 partner): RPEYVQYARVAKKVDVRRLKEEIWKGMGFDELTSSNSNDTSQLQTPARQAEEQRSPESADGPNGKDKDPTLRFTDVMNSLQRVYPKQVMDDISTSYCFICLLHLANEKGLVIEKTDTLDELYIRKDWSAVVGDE
PROTOCOL NOTES: biochemical
MEASURED PARAMETER: Kd (µM)
Please give a number only; it is taken to be in µM.

Need Kd, item `Nc1ncnc2c1ncn2[C@@H]1O[C@H](COP(=O)(O)OP(=O)(O)OP(=O)(O)O)[C@@H](O)[C@H]1O`
18.4

Numbers sourced from paper PMC6591010.
